# Tested on: RIF-R2 (Mtb strain resistant to rifampicin)
# Assay info: microbe, parasite or virus in culture
# Type: cell-based
# Measurement context: Mycobacterium tuberculosis
Property: MIC

Compound | Property | Result
O=C(C[n+]1ccn(Cc2cccc(Cn3cc[n+](CC(=O)c4ccc([N+](=O)[O-])cc4)c3)n2)c1)c1ccc([N+](=O)[O-])cc1.[Br-].[Br-] | MIC | > 200 µM
CO[C@H]1/C=C/O[C@@]2(C)Oc3c(C)c(O)c4c(O)c(c(/C=N/N5CCN(C)CC5)c(O)c4c3C2=O)NC(=O)/C(C)=C\C=C\[C@H](C)[C@H](O)[C@@H](C)[C@@H](O)[C@@H](C)[C@H](OC(C)=O)[C@@H]1C [Rifampicin, reference compound] | MIC | > 50 µM
c1cc(Cn2cnc3ccccc32)nc(Cn2cnc3ccccc32)c1 | MIC | > 50 µM
